- Test system: Panc2.13 (Pancreatic)
- Test summary: Proliferation of Panc2.13
- Assay type: cell-based
Measured endpoint: ratio (IC50 of K101)/(IC50 of compound) Panc2.13

// solved cases for ratio (IC50 of K101)/(IC50 of compound) Panc2.13 follow
Smiles string: CC1=C[C@H]2[C@@]3(O)[C@H](C)C[C@]4(OC(=O)[C@@H](N)CC5CCCCC5)[C@H]([C@@H]3C=C(CO)C[C@]2(O)C1=O)C4(C)C
Observed value: 7.1
--
Smiles string: CC1=C[C@H]2[C@@]3(O)[C@H](C)C[C@]4(OC(=O)[C@@H](N)[C@]56C[C@H]7C[C@H](C[C@H](C7)C5)C6)[C@H]([C@@H]3C=C(CO)C[C@]2(O)C1=O)C4(C)C
Observed value: 71.7
--
Smiles string: CC1=C[C@H]2[C@@]3(O)[C@H](C)C[C@]4(OC(=O)[C@@H](N)CCc5ccccc5)[C@H]([C@@H]3C=C(CO)C[C@]2(O)C1=O)C4(C)C
Observed value: 4.28

Consider the compound shown here: CC1=C[C@H]2[C@@]3(O)[C@H](C)C[C@]4(OC(=O)[C@@H](N)C5Cc6ccccc6C5)[C@H]([C@@H]3C=C(CO)C[C@]2(O)C1=O)C4(C)C What is its recorded ratio (IC50 of K101)/(IC50 of compound) Panc2.13?
5.82

Try this compound next: CC1=C[C@H]2[C@@]3(O)[C@H](C)C[C@]4(OC(=O)[C@@H](N)Cc5ccc(C(F)(F)F)cc5)[C@H]([C@@H]3C=C(CO)C[C@]2(O)C1=O)C4(C)C
6.79

Then what about the compound CC1=C[C@H]2[C@@]3(O)[C@H](C)C[C@]4(OC(=O)[C@@H](N)CCCCCCc5ccccc5)[C@H]([C@@H]3C=C(CO)C[C@]2(O)C1=O)C4(C)C ?
57.3

// provenance: patent US20240197666A1
